# method description: Pharmacokinetics of TAX in plasma (noncompartmental, HPLC-UV)
# Format: in vivo, human
# condition set: human, intravenous, 80 mg/m^2; plasma, first chemotherapy cycle, 10 patients per group

>  <smiles repr>
CC(=O)O[C@H]1C(=O)[C@@]2(C)[C@H]([C@H](OC(=O)c3ccccc3)[C@]3(O)C[C@H](OC(=O)[C@H](O)[C@@H](NC(=O)c4ccccc4)c4ccccc4)C(C)=C1C3(C)C)[C@]1(OC(C)=O)CO[C@@H]1C[C@@H]2O

>  <measurement unit>
mL/min

>  <clearance>
664

$$$$

###

# method description: Pharmacokinetics of TAX in plasma (noncompartmental, HPLC-UV)
# Format: in vivo, human
# condition set: human, intravenous, 80 mg/m^2; plasma, first chemotherapy cycle, 10 patients per group
# Experimental: Blood samples were centrifuged immediately for 10 min at 1,000 ×g at room temperature and the resulting plasma was frozen and stored at −80°C until analysis. Briefly, a volume of 200 μL of acetonitrile, 300 μL of deionized water, and 5 mL of tertbutylmethylether was added to 100 μL of plasma samples in borosilicate glass tubes. The mixture was vortexed for 30 sec and centrifuged at 2,500 ×g for 15 min. […]
readout kind: Vd (L)

>  <molecule>
CC(=O)O[C@H]1C(=O)[C@@]2(C)[C@H]([C@H](OC(=O)c3ccccc3)[C@]3(O)C[C@H](OC(=O)[C@H](O)[C@@H](NC(=O)c4ccccc4)c4ccccc4)C(C)=C1C3(C)C)[C@]1(OC(C)=O)CO[C@@H]1C[C@@H]2O [TAX, paclitaxel]

>  <readout kind>
Vd

>  <numeric readout>
52.1

$$$$
